Each record here notes measured melting point.
Counter-ions that a name gives are not always drawn.

{"compound": "Cc1ccccc1C(=Nc1ccc(F)cc1)NC(=NC1CCCCC1)N1CCCCC1C (centres unmarked) (as salt: hydrochloride)", "reading": "> 160 °C (dec.)"}
{"compound": "COc1ccc(N=C(NC(=Nc2ccccc2)N2CCCCCC2)c2c(C)cccc2C)cc1 (as salt: hydrochloride)", "reading": "228 to 230 °C (dec.)"}
{"compound": "c1ccc(N=C(N=C(Nc2ccccc2)c2ccccc2)N2CCCC2)cc1 (as salt: hydrochloride)", "reading": "246 to 247 °C"}
{"compound": "Fc1ccc(N=C(NC(=Nc2ccc(F)cc2)N2CCCCCC2)c2c(F)cccc2F)cc1 (as salt: hydrochloride)", "reading": "216 to 218 °C"}

Value of melting point reported for the compound C(=C(Nc1ccccc1)c1ccccc1)C(=Nc1ccccc1)N1CCCC1 (as salt: nitrate) is 184 to 186 °C

Value of melting point reported for the compound c1ccc(N=C(NC(=Nc2ccccc2)N2CCCCCC2)c2ccccc2)cc1 (as salt: hydroiodid) is 228 to 229 °C

Value of melting point reported for the compound COc1ccc(NC(=NC(=Nc2ccccc2)N2CCCC2)c2ccccc2)cc1 (as salt: hydrochloride) is 244 to 245 °C

Value of melting point reported for the compound CCC1CCCCN1C(=Nc1ccccc1)NC(=Nc1ccc(F)cc1)c1c(C)cccc1C (centres unmarked) (as salt: hydrochloride) is 137 to 139 °C (dec.)

Value of melting point reported for the compound Cc1cccc(C)c1C(=NC(=Nc1ccccc1)N1CCC(=O)CC1C)Nc1ccc(F)cc1 (centres unmarked) (as salt: hydrochloride) is 215 to 217 °C

Value of melting point reported for the compound Cc1ccccc1C(=CC(=NC1CC1)N1CCCCO1)Nc1ccc(F)cc1 (as salt: hydrochloride) is 140 to 142 °C (dec.)

Value of melting point reported for the compound Cc1ccccc1N=C(N=C(Nc1ccc(F)cc1)c1c(C)cccc1C)N1CCCCC1C (centres unmarked) (as salt: hydrochloride) is 206 to 208 °C

Value of melting point reported for the compound COc1ccc(NC(=NC(=Nc2ccccc2)N2CCCCC2C)c2ccccc2C)cc1 (centres unmarked) (as salt: hydrochloride) is 162 to 164 °C (dec.)

Value of melting point reported for the compound Fc1ccc(NC(=NC(=Nc2ccccc2)N2CCCC2)c2ccccc2)cc1 (as salt: hydrochloride) is 259 to 260 °C (dec.)

Value of melting point reported for the compound Cc1ccccc1C(=NC(=Nc1ccccc1F)N1CCC(O)CC1)Nc1ccc(F)cc1 (as salt: hydrochloride) is 174 to 175 °C
